# Target or test system: ShHTL5 (Striga hermonthica, UniProt A0A0M5I297)
# Sequence (A0A0M5I297 entry or part of it): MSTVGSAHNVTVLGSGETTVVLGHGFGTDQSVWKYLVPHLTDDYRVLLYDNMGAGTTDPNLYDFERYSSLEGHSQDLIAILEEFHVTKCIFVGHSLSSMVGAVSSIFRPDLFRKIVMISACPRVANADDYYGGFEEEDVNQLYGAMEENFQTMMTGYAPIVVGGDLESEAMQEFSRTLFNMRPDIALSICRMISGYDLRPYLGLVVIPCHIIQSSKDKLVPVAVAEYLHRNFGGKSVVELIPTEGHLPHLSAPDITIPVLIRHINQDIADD
pIC50: −log10 of the molar value.
Observation type: pIC50

**Query** API: value(readout=pIC50, system=ShHTL5 (Striga hermonthica, UniProt A0A0M5I297)) for record `COc1ccc(CCCc2cccc3c2CCN3C(=O)n2ccnn2)cc1`
**Result** < 4.30

###

# Target or test system: OsD14 (Oryza sativa subsp. japonica, UniProt Q10QA5)
# Construct: made in house; host or cells: Escherichia coli BL21 (DE3)
# Sequence (Q10QA5 whole entry): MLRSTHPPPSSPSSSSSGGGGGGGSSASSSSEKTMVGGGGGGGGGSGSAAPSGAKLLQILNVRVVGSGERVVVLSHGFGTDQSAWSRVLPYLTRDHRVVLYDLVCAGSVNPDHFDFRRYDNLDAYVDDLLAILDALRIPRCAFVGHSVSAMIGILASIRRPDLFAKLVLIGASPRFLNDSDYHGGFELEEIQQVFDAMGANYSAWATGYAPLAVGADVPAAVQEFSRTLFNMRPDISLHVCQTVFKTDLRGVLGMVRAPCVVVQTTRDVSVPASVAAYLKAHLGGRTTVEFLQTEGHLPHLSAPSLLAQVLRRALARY
# Procedure details: YLG hydrolysis competition assay with OsD14
# Assay type: biochemical, rice (Oryza sativa)
# Details: Figure 3D-F; mean ± SD, n = 3; no unit printed with values (x-axis µM); read-out: IC50, OsD14-mediated YLG hydrolysis (Figure 3)
Observation type: IC50 (µM)
Give just the numeric value; µM need not be written.

**Query** Quick one: IC50 for COc1ccc(CCCc2cccc3c2CCN3C(=O)n2ccnn2)cc1 [KK023-N1] ?
**Result** 29.6

###

# Target or test system: ShHTL7 (Striga hermonthica)
# Sequence (A0A0M3PNA2 1-271): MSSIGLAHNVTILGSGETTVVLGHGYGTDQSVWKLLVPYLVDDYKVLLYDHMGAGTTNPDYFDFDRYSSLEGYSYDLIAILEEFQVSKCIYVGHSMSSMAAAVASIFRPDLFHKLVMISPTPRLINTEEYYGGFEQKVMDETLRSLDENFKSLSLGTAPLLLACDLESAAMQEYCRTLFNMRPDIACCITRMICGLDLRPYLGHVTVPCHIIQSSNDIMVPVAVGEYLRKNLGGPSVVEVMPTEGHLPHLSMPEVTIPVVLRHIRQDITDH
# Procedure details: YLG hydrolysis competition assay with ShHTL7
# Format: biochemical
# Details: 0.33 µM ShHTL7, 1 µM YLG; read-out: IC50, inhibition of ShHTL7-mediated YLG hydrolysis
Observation type: pIC50
# reply with the number alone; pIC50 is -log10 of concentration in mol/L

**Query** So what pIC50 did CC1=C[C@H](O/C=C2/C(=O)O[C@@H]3c4ccccc4C[C@H]23)OC1=O [GR24] get with ShHTL7 (Striga hermonthica)?
**Result** 6.57

meta.source: paper PMC8825254
